# target.or.test.system: HERG channels (Homo sapiens)
# Sequence (Q12809 whole entry): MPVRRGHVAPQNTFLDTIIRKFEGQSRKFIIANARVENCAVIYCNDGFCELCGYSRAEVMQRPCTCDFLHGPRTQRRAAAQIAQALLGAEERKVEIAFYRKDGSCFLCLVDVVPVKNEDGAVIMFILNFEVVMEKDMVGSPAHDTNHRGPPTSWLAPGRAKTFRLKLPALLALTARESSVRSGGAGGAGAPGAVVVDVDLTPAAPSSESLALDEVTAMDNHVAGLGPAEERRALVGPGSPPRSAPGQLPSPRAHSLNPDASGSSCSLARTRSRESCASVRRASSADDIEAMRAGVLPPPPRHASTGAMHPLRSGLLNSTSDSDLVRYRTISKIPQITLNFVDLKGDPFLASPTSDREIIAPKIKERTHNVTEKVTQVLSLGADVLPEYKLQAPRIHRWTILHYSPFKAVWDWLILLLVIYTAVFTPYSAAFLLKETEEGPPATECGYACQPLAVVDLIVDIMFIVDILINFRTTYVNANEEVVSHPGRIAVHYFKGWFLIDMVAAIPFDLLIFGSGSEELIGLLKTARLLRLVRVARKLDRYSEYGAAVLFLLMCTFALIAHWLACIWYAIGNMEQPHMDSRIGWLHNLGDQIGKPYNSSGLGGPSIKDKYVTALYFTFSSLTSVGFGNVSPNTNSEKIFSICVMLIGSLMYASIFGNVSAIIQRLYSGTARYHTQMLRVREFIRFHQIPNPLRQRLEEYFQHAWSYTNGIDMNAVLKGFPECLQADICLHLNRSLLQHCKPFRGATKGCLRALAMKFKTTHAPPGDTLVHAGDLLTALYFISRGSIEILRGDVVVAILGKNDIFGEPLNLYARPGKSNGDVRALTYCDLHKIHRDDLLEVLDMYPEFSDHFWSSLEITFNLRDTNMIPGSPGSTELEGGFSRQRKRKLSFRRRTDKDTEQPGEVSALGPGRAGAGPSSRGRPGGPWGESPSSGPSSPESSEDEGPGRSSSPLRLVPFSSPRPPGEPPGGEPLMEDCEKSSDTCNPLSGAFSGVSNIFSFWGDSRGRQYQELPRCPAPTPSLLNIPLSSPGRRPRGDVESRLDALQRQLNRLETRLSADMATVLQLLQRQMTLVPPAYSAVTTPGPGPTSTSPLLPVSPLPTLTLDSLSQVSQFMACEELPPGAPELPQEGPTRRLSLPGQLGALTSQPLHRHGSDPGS
# method.notes: Ca2+ treated as blocking ion, HERG channels in oocytes, protocols 1 and 2
# Type: cell-based
# Design: expressed in transfected cells; host or cells: CHO cells
# condition.context: −100 mV, read-out: apparent equilibrium inhibition constant (Ki)
metric: Ki (µM)

• [Ca+2] [Ca^2+] = 290
